Species on record: Rattus norvegicus
assay_procedure: DrugMatrix - Regimen: Daily Repeat
Assay type: toxicity, organism-based, Sprague-Dawley
Set-up: regimen Daily Repeat, gender Male, age 6-8 weeks
recorded_conditions: in vivo, po, 50 mg/kg, 120 h, tissue Blood, route oral GAVAGE, dose level Low, time 5 day, vehicle .5 % CMC
outcome_measure: HEMOGLOBIN (G/DL)

In [3]: df
Out[3]:
                                   molecule  outcome_measure  value
0  CN(C)[C@@H]1C(O)=C(C(N)=O)C(=O)[C@@]2(O)C(O)=C3C(=O)c4c(O)ccc(Cl)c4[C@@](C)(O)[C@H]3C[C@@H]12 [CHLORTETRACYCLINE]       HEMOGLOBIN  13.43
1  CCN1CCC[C@H]1CNC(=O)c1cc(S(N)(=O)=O)ccc1OC [LEVOSULPIRIDE]       HEMOGLOBIN  14.57
2  Cc1cccc(C)c1OCC(C)N (centres undefined) [MEXILETINE]       HEMOGLOBIN  13.43
3  NC1CCN(c2nc3c(cc2F)c(=O)c(C(=O)O)cn3-c2ccc(F)cc2F)C1 (centres undefined) [TOSUFLOXACIN]       HEMOGLOBIN   12.7

Taken from ChEMBL document CHEMBL3885881.
